biological target: T1, human CI-M6PR domain1-3His6 (human, UniProt P11717 41-467); experiment: BLI, biotinylated antigen on SA tips, global 1:1 fit, dissociation at pH 7.4
T1 construct: Recombinant, made in HEK293 cells; Biotinylated with NHS-PEG4-biotin for BLI; unlabelled in SEC-MALLS and crystallisation; also called CI-M6PR hDom1-3His6; hDom1-3His6

binder	koff [s⁻¹]
humanized variant VHH8h2 (VHH, Made in E. coli, IMAC purified; tag not specified) VHH: DVQLVESGGGLVQPGGSLRLSCAASGRTFNTYNWGWFRQAPGKEREFVAAIRWSSSKTSYADSVKGRFTISRDNSKNTVYLQMNSLRPEDTAVYYCAASIVDFTTNPSHFGSWGQGTLVTVSS	0.00067
humanized variant VHH7h1 (VHH, Made in E. coli, IMAC purified; tag not specified) VHH: EVQLVESGGGLVQPGGSLRLSCAASGIIFSDNRMDWYRQAPGKQREWVATLASYGWKTYADSVKGRFTISRDNSKNTVYLQMNSLRPEDTAVYYCKASSPVLNDIWGQGTLVTVSS	0.0071
humanized variant VHH8h1 (VHH, Made in E. coli, IMAC purified; tag not specified) VHH: EVQLVESGGGLVQPGGSLRLSCAASGRTFNTYNWGWFRQAPGKEREFVAAIRWSSSKTSYADSVKGRFTISRDNSKNTVYLQMNSLRPEDTAVYYCAASIVDFTTNPSHFGSWGQGTLVTVSS	0.00048
humanized variant VHH7h3 (VHH, Made in E. coli, IMAC purified; tag not specified) VHH: DVQLVESGGGLVQPGGSLRLSCAASGIIFSDNRMDWYRQAPGKQREWVATLASYGWKTYADSVKGRFTISRDNTKNTVYLQMNSLRPEDTAVYYCKASSPVLNDIWGQGTLVTVSS	0.0064
anti-CI-M6PR VHH8 (VHH, Purified by IMAC, so tagged; Labelled with Alexa Fluor 488 (NHS ester) in the imaging experiments) VHH: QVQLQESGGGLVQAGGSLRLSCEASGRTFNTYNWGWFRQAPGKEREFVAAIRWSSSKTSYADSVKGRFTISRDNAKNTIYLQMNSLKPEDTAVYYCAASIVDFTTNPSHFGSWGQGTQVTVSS	0.00032
humanized variant VHH7h2 (VHH, Made in E. coli, IMAC purified; tag not specified) VHH: DVQLVESGGGLVQPGGSLRLSCAASGIIFSDNRMDWYRQAPGKQREWVATLASYGWKTYADSVKGRFTISRDNSKNTVYLQMNSLRPEDTAVYYCKASSPVLNDIWGQGTLVTVSS	0.0064
humanized variant VHH8h3 (VHH, Made in E. coli, IMAC purified; tag not specified) VHH: DVQLVESGGGLVQAGGSLRLSCAASGRTFNTYNWGWFRQAPGKEREFVAAIRWSSSKTSYADSVKGRFTISRDNSKNTVYLQMNSLRPEDTAVYYCAASIVDFTTNPSHFGSWGQGTLVTVSS	0.00051
anti-CI-M6PR VHH7 (VHH, Purified by IMAC, so tagged; Labelled with Alexa Fluor 488 (NHS ester) in the imaging experiments) VHH: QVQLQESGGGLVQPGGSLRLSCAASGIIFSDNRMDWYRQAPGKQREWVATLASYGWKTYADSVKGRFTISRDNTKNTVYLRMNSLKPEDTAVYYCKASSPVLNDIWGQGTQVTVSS	0.0055
